Listed here: items and their measured viability, T/C.
Test system: 556581-035-R-J1-PDC complex spheroid growth;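 also: spheroids exposed to agents for 7 days before viability read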
assay_notes: Anticancer human tumor 556581-035-R-J1-PDC patient-derived ovarian carcinoma cell line growth inhibition [Asc]
assay_conditions: second compound 1 µM; first compound 0.1 µM; hits give low values

compound	tested_target	viability, T/C
O=C(c1ccc(F)c(F)c1Nc1ccc(I)cc1F)N1CC(O)([C@@H]2CCCCN2)C1 + CNC(C)C(=O)NC1CN(S(=O)(=O)c2cccc(S(=O)(=O)N3CCC4CCC(C(=O)NC(c5ccccc5)c5ccccc5)N4C(=O)C(NC(=O)C(C)NC)C3)c2)CCC2CCC(C(=O)NC(c3ccccc3)c3ccccc3)N2C1=O	556581-035-R-J1-PDC complex spheroid growth	53.6%
O=C(c1ccc(F)c(F)c1Nc1ccc(I)cc1F)N1CC(O)([C@@H]2CCCCN2)C1 + Cc1c(S(C)(=O)=O)c(-c2cc(F)cc(N3CCN(c4ccc(NS(=O)(=O)c5ccc(NC(CCN6CCC(C(=O)OCCCP(=O)(O)O)CC6)CSc6ccccc6)c(S(=O)(=O)C(F)(F)F)c5)cc4)CC3)c2)c(-c2ccc(Cl)cc2)n1C(C)C	556581-035-R-J1-PDC complex spheroid growth	29.5%
